testedSystem: T1, Soluble IGF-1R (R&D Systems, Cat. # 391-GR/CF); recombinant human IGF-1R (human, UniProt P08069 31-935)
T1 construct: extracellular domain; Eu3+-labelled in the TR-FRET assays; also called sIGF-1R; rhIGF-1R
measurementNotes: phage ELISA, vs IR
Reported values of IGF-1R/IR Comparison for individual entries
Could you give me the number in ratio? Just the number is fine.

// below: answered binders
binder	IGF-1R/IR Comparison (ratio)
TSEVQRRSQDNFYDWFVAQVA [A6S-3-E2-IR]	2.5
TLDGGSFEEQFYDWFVRQLSYRTNPD [H2CA-4-G11-IGFR]	3.9
DRAFYNGLRDLVGAVYGAWD [R20α-4-20C11-IR]	10.3

Turning to the following binder.
Q: Could you tell me which IGF-1R/IR Comparison is on file for NSRDGGFYLQLERLLGFPVTG [20E2B-3-D4-IGFR] ?
Ans: 9.6
